Where do these numbers come from? They come from patent US10662203B2.

- Tested on: K. pneumoniae (ATCC10031)
- ASSAY_METHOD_TEXT: 50% growth inhibitory concentration (IC50) determination assay
- Assay type: cell-based
- COND: Klebsiella pneumoniae, Iso-Sensitest broth, 0.098 = detection limit
MEASURED_ATTRIBUTE: IC50

COMPOUND	EXPERIMENTAL_SYSTEM	IC50
CNc1cc(F)c(F)c2c1[nH]c1ncc(-c3cnc4c(c3)c(=O)c(C(=O)O)cn4C)c(N3CCNC(C(F)(F)F)C3)c12 (stereo not drawn)	K. pneumoniae (ATCC10031)	0.104 µM

Hello, please tell me recorded IC50 for this one: CNc1cc(F)c(F)c2c1[nH]c1ncc(-c3cnc4c(c3)c(=O)c(C(=O)O)cn4C)c(N3CC[C@H](CN(C)C)C3)c12
< 0.098 µM

Hello, please tell me recorded IC50 for this one: CNc1cc(F)cc2c1[nH]c1ncc(-c3cnc4c(c3)c(=O)c(C(=O)O)cn4C)c(N3CCC(C)(O)C3)c12 (stereo not drawn)
< 0.098 µM

###

- ASSAY_METHOD_TEXT: Single dose PK study (SDPK) in female CD-1 mouse
- Type: in vivo
- COND: MOUSE IV, 1.0 mg/kg-Solution
- Method: Single Dose PK Study (SDPK) in Female CD-1 Mouse: The single dose PK in female CD-1 mouse was performed to assess compound's pharmacokinetic properties. One group of animals were dosed via bolus intravenous (IV) of the respective compound. Blood samples (approximately 30 μL) were collected via saphenous vein at 5 mins, 15 min, 30 min, 1 hr, 2 hr, 4 hr and 7 hr. […] The pharmacokinetic parameters were calculated using non-compartmental module of WinNonlin® Professional 6.4.
MEASURED_ATTRIBUTE: AUC total (ng·h/mL)

MOLECULE	VALUE_MEASURED
CNc1cc(F)c(F)c2c1[nH]c1ncc(-c3cnc4c(c3)c(=O)c(C(=O)O)cn4C)c(N3CC4[C@@H](C3)OCCN4C)c12 (stereo partly drawn)	196.3
CNc1cc(F)cc2c1[nH]c1ncc(-c3cnc4c(c3)c(=O)c(C(=O)O)cn4NC)c(N3CC[C@H]4CN(C)C[C@H]43)c12 [Example 3.05A]	356.4
CNc1cc(F)c(F)c2c1[nH]c1ncc(-c3cnc4c(c3)c(=O)c(C(=O)O)cn4NC)c(N3CC[C@H]4CN(C)C[C@H]43)c12 [Example 3.01A]	195.4
CNc1cc(F)c(F)c2c1[nH]c1ncc(-c3cnc4c(c3)c(=O)c(C(=O)O)cn4NC)c(N3C[C@H]4CCN(C)[C@H]4C3)c12 [Example 3.07A]	214.0
CNc1cc(F)cc2c1[nH]c1ncc(-c3cnc4c(c3)c(=O)c(C(=O)O)cn4NC)c(N3CCOCC3)c12	305.8
CNc1cc(F)c(F)c2c1[nH]c1ncc(-c3cnc4c(c3)c(=O)c(C(=O)O)cn4C)c(N3CC4[C@H](CCN4C)C3)c12 (stereo partly drawn)	235.0

###

# reported IC50; entries follow
- System: K. pneumoniae (ATCC10031)
- ASSAY_METHOD_TEXT: 50% growth inhibitory concentration (IC50) determination assay
- Assay type: cell-based
- COND: Klebsiella pneumoniae, Iso-Sensitest broth, 0.098 = detection limit

# annotated cases, reported IC50 shown
MOLECULE	MEASURED_ATTRIBUTE	VALUE_MEASURED
CNc1cc(F)c(F)c2c1[nH]c1ncc(-c3cnc4c(c3)c(=O)c(C(=O)O)cn4C)c(N3C[C@H]4CCC[C@@H](N(C)C)[C@H]4C3)c12 [Example 1.175]	IC50	< 0.098 µM
CNc1cc(F)cc2c1[nH]c1ncc(-c3cnc4c(c3)c(=O)c(C(=O)O)cn4C)c(N3C[C@@H]4OCCN(C)[C@@H]4C3)c12 [Example 3.22B]	IC50	< 0.098 µM
CNc1cc(F)c(F)c2c1[nH]c1ncc(-c3cnc4c(c3)c(=O)c(C(=O)O)cn4C3CCNC3)c(N3CCSCC3)c12 (stereo not drawn) [Example 1.98]	IC50	0.107 µM
CNc1cc(F)c(F)c2c1[nH]c1ncc(-c3cnc4c(c3)c(=O)c(C(=O)O)cn4NC)c(N3CC[C@@H]4CN(C)C[C@@H]43)c12 [Example 3.01B]	IC50	< 0.098 µM
CNc1cc(F)c(F)c2c1[nH]c1ncc(-c3cnc4c(c3)c(=O)c(C(=O)O)cn4C)c(N3CCC(CN(C)C)CC3)c12 [Example 1.183]	IC50	< 0.098 µM

# evaluate next
Hello, please tell me recorded IC50 for this one: CNc1cc(F)c(F)c2c1[nH]c1ncc(-c3cnc4c(c3)c(=O)c(C(=O)O)cn4C)c(N3CCN(C(C)C)CC3)c12 [Example 1.234]
< 0.098 µM

###

- ASSAY_METHOD_TEXT: Lyophilisation solubility assay (LYSA)
- Format: physicochemical
- COND: phosphate buffer, pH 6.5, aqueous buffer, thermodynamic from solid, 0.05 M phosphate buffer, HPLC-UV
MEASURED_ATTRIBUTE: solubility thermodynamic (µg/mL)

# annotated cases, reported solubility thermodynamic shown
COMPOUND	solubility thermodynamic (µg/mL)
CNc1cc(F)c(F)c2c1[nH]c1ncc(-c3cnc4c(c3)c(=O)c(C(=O)O)cn4NC)c(N3CC[C@H]4CN(C)C[C@H]43)c12 [Example 3.01A]	264
CNc1cc(Cl)cc2c1[nH]c1ncc(-c3cnc4c(c3)c(=O)c(C(=O)O)cn4C)c(N3CCOC(CN(C)C)C3)c12 (stereo not drawn) [Example 1.138]	91
CNc1cc(F)c(F)c2c1[nH]c1ncc(-c3cnc4c(c3)c(=O)c(C(=O)O)cn4C)c(N3CC[C@H]4CN(C)C[C@H]43)c12 [Example 3.03A]	137

1. CNc1cc(F)c(F)c2c1[nH]c1ncc(-c3cnc4c(c3)c(=O)c(C(=O)O)cn4C)c(N3CC4C(CN(C)C)CO[C@@H]4C3)c12 (stereo partly drawn) [Example 1.88]
2. CCNc1cc(C(F)(F)F)cc2c1[nH]c1ncc(-c3cnc4c(c3)c(=O)c(C(=O)O)cn4NC)c(N3CC[C@H]4CN(C)CC43)c12 (stereo partly drawn) [Example 1.123]
3. CCN1CC2[C@@H](CCN2c2c(-c3cnc4c(c3)c(=O)c(C(=O)O)cn4C)cnc3[nH]c4c(NC)cc(F)c(F)c4c23)C1 (stereo partly drawn) [Example 1.279]
Task field, ranking: reported solubility thermodynamic, descending order. Kindly provide the labels arranged according to the requested ordering.
1, 3, 2

###

- ASSAY_METHOD_TEXT: Cytotoxicity assay (HepG2, CellTiter-Blue cell viability)
- Format: cell-based
- COND: human
MEASURED_ATTRIBUTE: CC50 at 3 days (µM)
API: value field is a number in µM; no unit string.

Hello, please tell me recorded CC50 at 3 days for this one: CCn1cc(C(=O)O)c(=O)c2cc(-c3cnc4[nH]c5c(NC)cc(F)c(F)c5c4c3N3CC4CC(C3)O4)cnc21
27.1

###

- Tested on: K. pneumoniae (ATCC10031)
- ASSAY_METHOD_TEXT: 50% growth inhibitory concentration (IC50) determination assay
- Format: cell-based
- COND: Klebsiella pneumoniae, Iso-Sensitest broth, 0.098 = detection limit
MEASURED_ATTRIBUTE: IC50

# annotated cases, reported IC50 shown
COMPOUND	EXPERIMENTAL_SYSTEM	IC50
CNc1cc(Cl)cc2c1[nH]c1ncc(-c3cnc4c(c3)c(=O)c(C(=O)O)cn4C)c(N3CCC(N(C)C)C3)c12 (stereo not drawn)	K. pneumoniae (ATCC10031)	< 0.098 µM
CNc1cc(Cl)cc2c1[nH]c1ncc(-c3cnc4c(c3)c(=O)c(C(=O)O)cn4C)c(N3C[C@H]4CCN(C)[C@H]4C3)c12 [Example 3.15A]	K. pneumoniae (ATCC10031)	< 0.098 µM

Hello, please tell me recorded IC50 for this one: CNc1cc(F)c(F)c2c1[nH]c1ncc(-c3cnc4c(c3)c(=O)c(C(=O)O)cn4C)c(N3CCC4(CCCN(CCO)C4)C3)c12 (stereo not drawn)
< 0.098 µM

###

# reported CC50 at 3 days; entries follow
- ASSAY_METHOD_TEXT: Cytotoxicity assay (HepG2, CellTiter-Blue cell viability)
- Format: cell-based
- COND: human; HepG2 cells, 3 days treatment; "*": the detection limit; read-out: CC50
API: value field is a number in µM; no unit string.

# annotated cases, reported CC50 at 3 days shown
COMPOUND	VALUE_UNITS	VALUE_MEASURED
CNc1cc(F)cc2c1[nH]c1ncc(-c3cnc4c(c3)c(=O)c(C(=O)O)cn4CC3COCCN3)c(NC)c12 (stereo not shown)	µM	55.5
CNc1cc(Cl)cc2c1[nH]c1ncc(-c3cnc4c(c3)c(=O)c(C(=O)O)cn4C)c(N3CCOC(CN(C)C)C3)c12 (stereo not shown)	µM	47.3
CNc1cc(F)c(F)c2c1[nH]c1ncc(-c3cnc4c(c3)c(=O)c(C(=O)O)cn4C)c(N3CCC(N(C)C)CC3)c12	µM	91.7
CNc1cc(F)c(F)c2c1[nH]c1ncc(-c3cnc4c(c3)c(=O)c(C(=O)O)cn4CC3COCCN3)c(N3CCOCC3)c12 (stereo not shown)	µM	49
CNc1cc(F)c(F)c2c1[nH]c1ncc(-c3cnc4c(c3)c(=O)c(C(=O)O)cn4NC)c(N3CCCC(CN(C)C)C3)c12 (stereo not shown)	µM	45.6

Hello, please tell me recorded CC50 at 3 days for this one: CNc1cc(F)c(F)c2c1[nH]c1ncc(-c3cnc4c(c3)c(=O)c(C(=O)O)cn4CC(N)C(C)C)c(N3CCOCC3)c12 (stereo not shown)
35.9

Hello, please tell me recorded CC50 at 3 days for this one: CNc1cc(F)cc2c1[nH]c1ncc(-c3cnc4c(c3)c(=O)c(C(=O)O)cn4C)c(N3CC[C@@H]4C(CCN4C)C3)c12 (stereo partly shown)
51.6

Hello, please tell me recorded CC50 at 3 days for this one: CNc1cc(F)cc2c1[nH]c1ncc(-c3cnc4c(c3)c(=O)c(C(=O)O)cn4NC)c(N3CC[C@H]4CCN(C)C4C3)c12 (stereo partly shown)
33.9

Hello, please tell me recorded CC50 at 3 days for this one: CNc1cc(F)c(F)c2c1[nH]c1ncc(-c3cnc4c(c3)c(=O)c(C(=O)O)cn4C)c(N3CC[C@H](N(C)C)C3)c12
36.1
